These data points were gathered from patent US20160319032A1.

system: α5β1 integrin on K562 cells (UniProt P08648 42-1049; P05556 21-798)
Sequence (P08648 42-1049, chain 1 of 2): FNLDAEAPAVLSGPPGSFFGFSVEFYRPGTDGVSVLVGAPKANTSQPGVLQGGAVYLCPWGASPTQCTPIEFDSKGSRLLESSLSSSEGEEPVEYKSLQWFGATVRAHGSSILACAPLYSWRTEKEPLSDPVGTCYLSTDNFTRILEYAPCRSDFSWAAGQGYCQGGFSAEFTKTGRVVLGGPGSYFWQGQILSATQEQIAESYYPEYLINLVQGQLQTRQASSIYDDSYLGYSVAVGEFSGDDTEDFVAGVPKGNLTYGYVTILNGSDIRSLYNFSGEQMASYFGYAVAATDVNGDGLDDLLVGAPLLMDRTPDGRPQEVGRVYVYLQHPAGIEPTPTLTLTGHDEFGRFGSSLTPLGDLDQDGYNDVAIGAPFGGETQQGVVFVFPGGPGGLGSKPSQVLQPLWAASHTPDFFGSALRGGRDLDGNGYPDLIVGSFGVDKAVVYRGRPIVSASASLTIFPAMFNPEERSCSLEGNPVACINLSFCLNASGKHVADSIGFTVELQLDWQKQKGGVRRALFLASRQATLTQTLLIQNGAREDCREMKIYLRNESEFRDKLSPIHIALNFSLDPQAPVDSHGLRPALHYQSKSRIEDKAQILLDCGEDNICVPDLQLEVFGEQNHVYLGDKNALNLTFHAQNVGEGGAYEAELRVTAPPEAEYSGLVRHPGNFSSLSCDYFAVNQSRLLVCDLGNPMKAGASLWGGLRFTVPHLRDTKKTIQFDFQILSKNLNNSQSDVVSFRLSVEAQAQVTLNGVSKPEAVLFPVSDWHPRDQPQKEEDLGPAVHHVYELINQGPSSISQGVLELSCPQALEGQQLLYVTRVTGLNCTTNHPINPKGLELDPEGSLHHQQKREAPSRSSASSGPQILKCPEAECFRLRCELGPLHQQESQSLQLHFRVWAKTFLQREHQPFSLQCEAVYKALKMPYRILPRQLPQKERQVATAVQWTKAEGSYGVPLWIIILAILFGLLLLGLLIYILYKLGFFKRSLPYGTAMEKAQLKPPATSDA
Sequence (P05556 21-798, chain 2 of 2): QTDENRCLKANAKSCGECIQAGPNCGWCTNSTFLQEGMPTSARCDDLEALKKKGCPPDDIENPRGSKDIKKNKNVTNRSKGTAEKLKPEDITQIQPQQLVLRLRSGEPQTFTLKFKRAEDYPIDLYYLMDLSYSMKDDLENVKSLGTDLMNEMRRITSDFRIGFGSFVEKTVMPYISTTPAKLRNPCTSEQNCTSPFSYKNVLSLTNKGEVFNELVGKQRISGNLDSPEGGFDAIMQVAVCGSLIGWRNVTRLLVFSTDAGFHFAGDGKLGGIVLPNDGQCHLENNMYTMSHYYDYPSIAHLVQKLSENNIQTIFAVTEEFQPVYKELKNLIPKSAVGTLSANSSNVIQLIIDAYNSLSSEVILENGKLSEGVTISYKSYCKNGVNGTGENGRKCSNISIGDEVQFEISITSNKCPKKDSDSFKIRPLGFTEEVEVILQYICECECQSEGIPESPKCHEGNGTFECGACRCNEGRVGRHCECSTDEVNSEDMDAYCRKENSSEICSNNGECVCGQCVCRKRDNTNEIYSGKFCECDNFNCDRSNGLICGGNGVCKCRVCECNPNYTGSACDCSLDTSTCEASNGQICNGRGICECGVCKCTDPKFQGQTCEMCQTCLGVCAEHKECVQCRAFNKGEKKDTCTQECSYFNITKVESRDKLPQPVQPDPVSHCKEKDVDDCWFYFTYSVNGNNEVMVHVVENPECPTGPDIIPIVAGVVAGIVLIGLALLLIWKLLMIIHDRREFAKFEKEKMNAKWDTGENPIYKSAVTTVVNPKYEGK
assay_remarks: cell-based or functional assay
metric_name: % Inhibition of K562 adhesion to fibronectin

### Prompt Fill in reported % Inhibition of K562 adhesion to fibronectin for this entry: sc 188 SDM (antibody, V domains shown) VH: QVQLQESGPGLVKPSQTLSLTCTVSGGSISSGVYYWTWIRQHPGNGLEWIGYIYYSGSTSYNPSLKSRVTISVDTSKKQFSLKLTSVTAADTAVYYCAREGPLRGDYYYGLDVWGQGTTVTVSS VL: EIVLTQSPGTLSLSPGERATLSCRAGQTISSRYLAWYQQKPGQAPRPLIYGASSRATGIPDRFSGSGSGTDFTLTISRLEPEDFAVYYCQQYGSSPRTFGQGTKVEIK
### Response -8%

Dear colleague, could you send me % Inhibition of K562 adhesion to fibronectin for each of the items below? Thanks.
1. sc 264 RAD (antibody, V domains shown) VH: QVQLQESGPGLVKPSQTLSLTCTVSGGSISSGGYYWSWIRQHPGKGLEWIGYIYYSGRTYNNPSLKSRVTISVDTSKNQFSLKLSSVTAADTAVYYCARVATGRADYHFYAMDVWGQGTTVTVSS VL: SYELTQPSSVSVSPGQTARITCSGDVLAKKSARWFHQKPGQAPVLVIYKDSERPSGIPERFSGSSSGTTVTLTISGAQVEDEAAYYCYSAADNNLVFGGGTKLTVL
2. sc 188 (antibody, V domains shown, kappa light chain) VH: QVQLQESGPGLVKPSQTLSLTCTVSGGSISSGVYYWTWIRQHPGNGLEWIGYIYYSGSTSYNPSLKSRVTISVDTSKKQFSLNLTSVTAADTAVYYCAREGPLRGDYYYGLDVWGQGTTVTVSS VL: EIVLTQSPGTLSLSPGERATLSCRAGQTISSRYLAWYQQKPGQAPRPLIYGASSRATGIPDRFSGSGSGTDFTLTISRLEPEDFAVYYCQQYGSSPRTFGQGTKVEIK

### Response
6%
-5%
